Test system: Enterovirus
protocol.summary: Inhibitory concentration to prevent formation of Enterovirus (EV 71) plaques
Assay type: functional, organism-based
property.name: pIC50
# pIC50 = -log10(concentration in molar units)

*Q* Sample Brc1ccc(C(c2ccccc2)N2CCN(c3ncnc4c3cnn4-c3ccccc3)CC2)cc1 (stereo unspecified) — what was its pIC50?
*A* 6.04

*Q* Record: Cc1ccsc1C(c1ccccc1Br)N1CCN(c2ncnc3c2cnn3-c2ccccc2)CC1 (stereo unspecified)
*A* 6.49

*Q* Further, for Cc1ccccc1C(c1ccccc1)N1CCN(c2ncnc3c2cnn3-c2ccccc2)CC1 (stereo unspecified) ?
*A* 5.70

*Q* And what about the compound Cc1ccsc1C(c1ccccc1)N1CCN(c2ncnc3c2cnn3-c2ccccc2)CC1 (stereo unspecified) ?
*A* 6.34

*Q* Now consider N#Cc1cccc(C(c2ccccc2)N2CCN(c3ncnc4c3cnn4-c3ccccc3)CC2)c1 (stereo unspecified) and answer again.
*A* 6.11

*Q* Here is the next compound: Cc1noc(C)c1C(c1ccccc1)N1CCN(c2ncnc3c2cnn3-c2ccccc2)CC1 (stereo unspecified)
*A* 6.24

The measured values listed here are drawn from ChEMBL document CHEMBL1146731.
